Target or system: T1, biotinylated p53β peptide (human, also: biotinylated, site not given here)
T1 construct: also called biotinylated p53-aggregating peptide
T1 peptide: ILTIITL
Assay notes: peptide-binding assay: peptide spots on membrane, biotinylated p53β peptide, streptavidin-HRP;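 further: Membrane-bound synthesized peptide spots exposed to the biotinylated p53 aggregation-prone peptide, bound material revealed via streptavidin-HRP and chemiluminescence, spot signal reflecting binding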
Where no end group is shown, it is not given here.
# label = MET if Binding intensity (normalized) >= 9 normalized else NOT MET

Examples with answers:
{"columns": ["Binder", "Group label"],
 "data": [
  ["ILTNTTL (spot-synthesized on membrane; also called position Nr 21) [CC132_HUMAN peptide ILTNTTL]", "MET"],
  ["ITTVITL (spot-synthesized on membrane; also called position Nr 8) [CD041_HUMAN peptide ITTVITL]", "NOT MET"],
  ["ILTIVSL (spot-synthesized on membrane; also called position Nr 4) [DHX33_HUMAN peptide ILTIVSL]", "MET"],
  ["ILTIKEL (spot-synthesized on membrane; also called position Nr 31) [ZN830_HUMAN peptide ILTIKEL]", "MET"]
]}

API: above_or_equal(metric=Binding intensity (normalized), cutoff=9 normalized) for item ILTDVTL (spot-synthesized on membrane; also called position Nr 40) [BCL6B_HUMAN peptide ILTDVTL]
NOT MET

Data origin, for the record: patent US20140170239A1
